# Lookup of reported MIC Staphylococcus aureus-SMITH (GC 4543) keyed by entry
# Test system: Staphylococcus sp.
# test description: in vitro antibacterial evaluation, MIC by broth dilution
# Format: cell-based
# experimental conditions: strain GC 4543; broth dilution, 18 hours at 35° C.
Numbered stars: 1 amine (or outer) side, 2 acyl side, 3 side chain; on linkers, the order of the positions; unused ones are H or OH. Square brackets hold non-standard residues; d marks the D form. Peptide text beside a SMILES is read from it. ξ: configuration not given here. X1 = N=C1NCC(C(O)C(N[*:1])C(=O)[*:2])N1C1OC(CO)C(O)C(O)C1O; ξEnduracididine(βξ-OH,4'ξ) = N=C1NCC(C(O)C(N)C(=O)O)N1; Cha = N[CH](CC1CCCCC1)C(=O)O
# unit: µg/mL | format: bare number

Record excerpt, results attached:
| compound | reported |
| --- | --- |
| CC(=O)Nc1cc(CC2NC(=O)C(C(C)c3ccccc3)NC(=O)CNC(=O)C(CO)NC(=O)C(C(O)C3CNC(=N)N3C3OC(CO)C(O)C(O)C3O)NC(=O)C(C(O)C3CNC(=N)N3)NC2=O)ccc1O (stereo not drawn) | 64 |
| CC(C)=CCN1CC(C(O)C2NC(=O)C(C(O)C3CNC(=N)N3)NC(=O)C(Cc3ccc(OC4OC(CO)C(OC5OC6COC7(OC6C(O)C5O)C5CC6CC(C5)CC7C6)C(O)C4O)cc3)NC(=O)C(C(C)c3ccccc3)NC(=O)CNC(=O)C(CO)NC2=O)N(C2OC(CO)C(O)C(O)C2O)C1=N (stereo not drawn) | 4 |
| CC(c1ccccc1)C1NC(=O)CNC(=O)C(CO)NC(=O)C(C(O)C2CNC(=N)N2C2OC(CO)C(O)C(O)C2O)NC(=O)C(C(O)C2CNC(=N)N2)NC(=O)C(Cc2ccc(OC3OC(CO)C(OC4OC5COC6(CC7CCC6(C)C7(C)C)OC5C(O)C4O)C(O)C3O)cc2)NC1=O (stereo not drawn) | 0.5 |
| N=C1NCC(C(O)C2NC(=O)C(CC3CCCCC3)NC(=O)C(CC3CCCCC3)NC(=O)CNC(=O)C(CO)NC(=O)C(C(O)C3CNC(=N)N3C3OC(CO)C(O)C(O)C3O)NC2=O)N1 (stereo not drawn) [Example 52] (cyclo(G[Cha][Cha][ξEnduracididine(βξ-OH,4'ξ)][X1]S); configuration not given here) | 16 |
| CC(c1ccc(Cl)cc1)C1NC(=O)CNC(=O)C(CO)NC(=O)C(C(O)C2CNC(=N)N2C2OC(CO)C(O)C(O)C2O)NC(=O)C(C(O)C2CNC(=N)N2)NC(=O)C(Cc2ccc(OC3OC(CO)C(OC4OC5COC(c6ccccc6)OC5C(O)C4O)C(O)C3O)cc2)NC1=O (stereo not drawn) | 0.5 |

Let's switch to this compound now.
Q) Recorded MIC Staphylococcus aureus-SMITH (GC 4543) for CC(c1ccccc1)C1NC(=O)CNC(=O)C(CO)NC(=O)C(C(O)C2CN(Cc3ccccc3)C(=NCc3ccccc3)N2C2OC(CO)C(O)C(O)C2O)NC(=O)C(C(O)C2CN(Cc3ccccc3)C(=NCc3ccccc3)N2Cc2ccccc2)NC(=O)C(Cc2ccc(OC3OC(CO)C(OC4OC5COC6(OC5C(O)C4O)C4CC5CC(C4)CC6C5)C(O)C3O)cc2)NC1=O (stereo not drawn) with Staphylococcus sp., please?
A) 4
